Origin of values: PubChem BioAssay

experiment: inhibition of 3D7 malaria parasite growth – strain 3D7 (AID 2306); settings: P. falciparum 3D7 erythrocytic growth, LDH absorbance, 72 h; at 2 µM; stronger effect = higher value
Please use rule met whenever growth inhibition is not below 90%, and rule not met whenever it is.

The following compounds have reported results that may help.
- Cc1ccccc1C1CCN(C2CCC(NC(=O)/C=C/c3ccc(C#N)cc3)CC2)CC1 (stereo not given): rule not met
- CCCNCc1ccc(-c2ccc(CN(CCOC)C(=O)CCCOCc3ccccc3)cc2)nc1: rule met
- Cc1cc(C)c2nc(N3CCC(C(=O)NCCCN4CCC(N5CCCCC5)CC4)CC3)sc2c1: rule met
- OCC1CCCCN1Cc1cccc(-c2cccc(-c3nc4ccccc4[nH]3)c2)c1 (stereo not given): rule met
- CCCCCCCN1CCC(CCNc2ccnc3ccc(OC)cc23)CC1: rule not met
- O=C(Nc1ccc(OC2CCN(Cc3ccccc3)CC2)c(Cl)c1)c1cccs1: rule met

Enquiry: Assess whether reported growth inhibition for O=C(Nc1cccc(F)c1)c1ccc(C(=O)NC2CCN(CC3CCCCC3)C2)cc1 (stereo not given) sits at 90% or higher.
Return: rule met

Enquiry: And N#Cc1ccc(C(=O)NC2CCN(CCCCCNC(=O)/C=C/c3ccc(Cl)c(Cl)c3)CC2)cc1 ?
Return: rule met

Enquiry: And FC(F)(F)c1ccc2nccc(NN=Cc3cccnc3)c2c1 ?
Return: rule met
